- procedure details: in vitro
- assay setup: human, pooled human plasma
Square brackets hold non-standard residues; d marks the D form. Peptide text beside a SMILES is read from it.
Categories are assigned from the measured remaining at 0.5 h, 50 μM using these intervals: low: < 30%; moderate: ≥ 30% and < 90%; high: ≥ 90%

compound	category
CSCC[C@H](NC(=O)CNC(=O)[C@H](CCSC)NC(=O)[C@H](CCSC)NC(=O)[C@@H](N)CCCNC(=N)N)C(=O)N[C@H](C(=O)N[C@@H](Cc1ccccc1)C(=O)N[C@@H](CCC(N)=O)C(=O)N[C@@H](CO)C(=O)O)C(C)C [compound 52] (H-RMMGMVFQS-OH)	high
CSCC[C@H](NC(=O)CNC(=O)[C@H](CCSC)NC(=O)[C@H](CCSC)NC(=O)[C@H](CCCNC(=N)N)NC(=O)[C@@H](N)CCCNC(=N)N)C(=O)N[C@H](C(=O)N[C@@H](Cc1ccccc1)C(=O)N[C@@H](CCC(N)=O)C(=O)N[C@@H](CO)C(=O)N[C@@H](CC(C)C)C(=O)N[C@@H](CS)C(=O)NCC(=O)N[C@H](C)C(=O)O)C(C)C	low
CSCC[C@H](NC(=O)CNC(=O)[C@H](CCSC)NC(=O)[C@H](CCSC)NC(=O)[C@H](CCCNC(=N)N)NC(=O)[C@H](CCCNC(=N)N)NC(=O)[C@@H](N)CCSC)C(=O)N[C@H](C(=O)N[C@@H](Cc1ccccc1)C(=O)N[C@@H](CCC(N)=O)C(=O)N[C@@H](CS)C(=O)N[C@@H](CC(C)C)C(=O)N[C@@H](CS)C(=O)NCC(=O)N[C@@H](CC(C)C)C(=O)O)C(C)C	moderate
CSCC[C@H](NC(=O)CNC(=O)[C@H](CCSC)NC(=O)[C@H](CCSC)NC(=O)[C@H](CCCNC(=N)N)NC(=O)[C@@H](N)CCCNC(=N)N)C(=O)N[C@H](C(=O)N[C@@H](C)C(=O)N[C@@H](CCC(N)=O)C(=O)N[C@@H](CS)C(=O)N[C@@H](CC(C)C)C(=O)N[C@@H](CCC(=O)O)C(=O)NCC(=O)N[C@H](C)C(=O)O)C(C)C [compound 30] (H-RRMMGMVAQCLEG[dA]-OH; N-terminus and C-terminus assumed)	low
CSCC[C@H](NC(=O)CNC(=O)[C@H](CCSC)NC(=O)[C@@H](N)CCSC)C(=O)N[C@H](C(=O)N[C@@H](Cc1ccccc1)C(=O)N[C@@H](CCC(N)=O)C(=O)N[C@@H](CO)C(=O)O)C(C)C [compound 47] (H-MMGMVFQS-OH)	moderate
CSCC[C@H](NC(=O)CNC(=O)[C@H](CCSC)NC(=O)[C@H](CCSC)NC(=O)[C@H](CCCNC(=N)N)NC(=O)[C@@H](N)CCCNC(=N)N)C(=O)N[C@H](C(=O)N[C@@H](Cc1ccccc1)C(=O)N[C@@H](CCC(N)=O)C(=O)N[C@@H](CO)C(=O)O)C(C)C [compound 59] (H-RRMMGMVFQS-OH)	moderate
COCCOCCOCCOCCOCCOCCOCCOCCOCCOCCOCCOCCC(=O)N[C@@H](CCCCN)C(=O)N[C@@H](CCCNC(=N)N)C(=O)N[C@@H](CCCNC(=N)N)C(=O)N[C@@H](CCSC)C(=O)N[C@@H](CCSC)C(=O)NCC(=O)N[C@@H](CCSC)C(=O)N[C@H](C(=O)N[C@@H](Cc1ccccc1)C(=O)N[C@@H](CCC(N)=O)C(=O)N[C@@H](CS)C(=O)N[C@@H](CC(C)C)C(=O)N[C@@H](CS)C(=O)NCC(=O)N[C@H](C)C(=O)O)C(C)C	moderate
CSCC[C@H](NC(=O)CNC(=O)[C@H](CCSC)NC(=O)[C@@H](N)CCSC)C(=O)N[C@H](C(=O)N[C@@H](Cc1ccccc1)C(=O)N[C@@H](CCC(N)=O)C(=O)O)C(C)C [compound 46] (H-MMGMVFQ-OH)	high
